Source of measurements: patent KR20220134462A

# assayedSystem: T1, MCF-7 세포주의 세포막에 발현된 B7-H3 (UniProt Q5ZPR3 29-534)
# T1 construct: whole, on cells; Endogenous B7-H3 of the MCF-7 cell line; also called MCF-7 cell
# T1 sequence (looked up): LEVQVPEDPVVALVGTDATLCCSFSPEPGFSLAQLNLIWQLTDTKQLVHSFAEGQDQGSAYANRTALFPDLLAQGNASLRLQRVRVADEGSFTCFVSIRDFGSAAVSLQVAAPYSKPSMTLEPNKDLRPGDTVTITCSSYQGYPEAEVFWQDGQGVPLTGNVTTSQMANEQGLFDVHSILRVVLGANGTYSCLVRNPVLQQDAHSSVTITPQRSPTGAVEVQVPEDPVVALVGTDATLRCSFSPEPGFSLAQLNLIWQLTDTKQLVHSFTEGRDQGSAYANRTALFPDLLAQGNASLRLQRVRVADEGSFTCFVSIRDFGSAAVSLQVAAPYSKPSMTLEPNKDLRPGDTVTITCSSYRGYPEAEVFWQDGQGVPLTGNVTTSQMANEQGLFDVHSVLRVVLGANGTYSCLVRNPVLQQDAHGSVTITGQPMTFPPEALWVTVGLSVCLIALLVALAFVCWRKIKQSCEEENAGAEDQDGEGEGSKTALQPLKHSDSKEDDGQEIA
# experimentDescription: cell ELISA on fixed MCF-7 cells (표 2)
valueType: EC50 (nM)
Number only, in nM; omit the unit.

Q: Read the entry #6 항체 (B7-H3 항체) (antibody, V domains shown) VH: EVQLLESGGGLVQPGGSLRLSCAASGFTFSTYAISWVRQAPGKGLEWVSSIYYSGYTHYNPSLESRFTISRDNSKNTLYLQMNSLRAEDTAVYYCARGYSGWMDVWGQGTLVTVSS VL: QSVLTQPPSASGTPGQRVTISCGGNNIGSKSVHWYQQLPGTAPKLLIYDNNKRPSGVPNRFSGSKSGTSASLAISGLRSEDEADYYCAAWDDSLNVPVFGGGTKLTVL and write its reported EC50.
A: 0.234

Q: Read off the recorded EC50 for #1 항체 (B7-H3 항체) (antibody, V domains shown) VH: EVQLLESGGGLVQPGGSLRLSCAASGFTFSSYAMSWVRQAPGKGLEWVSTITGSGGSTYYADSVKGRFTISRDNSKNTLYLQMNSLRAEDTAVYYCARYKSGAFDIWGQGTLVTVSS VL: EIVLTQSPGTLSLSPGERATLSCRASQGIGNYLGWYQQKPGQAPRLLIYTASSLQSGIPDRFSGSGSGTDFTLTISRLEPEDFAVYYCQQGYSTPSWTFGQGTKVEIK
A: 0.605

Q: Give the measured EC50 for #7 항체 (B7-H3 항체) (antibody, V domains shown) VH: EVQLLESGGGLVQPGGSLRLSCAASGFTFSNFWIGWVRQAPGKGLEWVSWINPPGSITSYADSVKGRFTISRDNSKDTLYLQMNSLRAEDTAVYYCAREVGDVLDYWGQGTLVTVSS VL: QSVLTQPPSASGTPGQRVTISCTGTSSDIGRYNYVSWYQQLPGTAPKLLIYRNTQRPSGVPDRFSGSKSGTSASLAISGLRSEDEADYYCGTWDSSLNAYVFGGGTKLTVL
A: 1.01

Q: Consider the binder #5 항체 (B7-H3 항체) (antibody, V domains shown) VH: EVQLLESGGGLVQPGGSLRLSCAASGFTFSTYAMSWVRQAPGKGLEWVSAISGSGGSTLYADSVKGRFTISRDNSKNTLYLQMNSLRAEDTAVYYCARGGSATWAFDLWGQGTLVTVSS VL: QSVLTQPPSASGTPGQRVTISCSGSSSNIGSNYVYWYQQLPGTAPKLLIYRNNQRPSGVPDRFSGSKSGTSASLAISGLRSEDEADYYCGTWDSSLSGVVFGGGTKLTVL and give its recorded EC50.
A: 1.74

Q: Quote EC50 reported for #2 항체 (B7-H3 항체) (antibody, V domains shown) VH: EVQLLESGGGLVQPGGSLRLSCAASGFTFSAYYMIWVRQAPGKGLEWVSITNPSGGVTSYAQKFQGRFTISRDNSKNTLYLQMNSLRAEDTAVYYCARVGGRGFDIWGQGTLVTVSS VL: EIVLTQSPGTLSLSPGERATLSCHASQGISNYVAWYQQKPGQAPRLLIYDASNRATGIPDRFSGSGSGTDFTLTISHLEPEDFAVYYCQQSYSTLLTFGQGTKVEIK please.
A: 0.061

Q: Look up and report measured EC50 for this entry: #9 항체 (B7-H3 항체) (antibody, V domains shown) VH: EVQLLESGGGLVQPGGSLRLSCAASGFTFSSYAMNWVRQAPGKGLEWVSTISGSGGQTYYADSVKGRFTISRDNSKNTLYLQMNSLRAEDTAVYYCARWRSIWAFDYWGQGTLVTVSS VL: QSVLTQPPSASGTPGQRVTISCSDNNIGSKSVHWYQQLPGTAPKLLIYDNNKRPSGVPDRFSGSKSGTSASLAISGLRSEDEADYYCGTWDDSLSGPVFGGGTKLTVL
A: 0.322
